assay summary: Hepatic metabolic stability (hepatocyte clearance) assay, substrate depletion
Type: in vitro ADME, human
study conditions: both sexes, human, hepatocytes; hepatocyte time course; NS = slope not significant; read-out: Linear Regression Results, Best-Fit Values, Half Life
quantity name: log10 of half-life at 1 μM (log10 of the value in min)
# values: log10(half-life at 1 μM), units min

{"columns": ["compound", "log10 of half-life at 1 μM"],
 "data": [
  ["NC(=O)C(F)(F)C(F)(F)C(F)(F)C(F)(F)C(N)=O [Octafluoroadipamide]", 2.42]
]}

Recorded log10 of half-life at 1 μM of "OCCC(F)(F)C(F)(F)C(F)(F)C(F)(F)F" , please.
1.48

Now consider NC(=O)C(F)(F)C(F)(F)C(F)(F)F [Heptafluorobutyramide] and answer again.
1.84

Same question, "OCC(F)(F)C(F)(F)C(F)(F)C(F)(F)C(F)(F)C(F)(F)CO" this time
1.78

---

assay summary: Hepatic metabolic stability (hepatocyte clearance) assay, substrate depletion
Assay type: in vitro ADME, human
study conditions: both sexes, human, hepatocytes, unadjusted hepatocyte intrinsic clearance; read-out: Unadj in vitro Clint
T means recorded hepatocyte CLint at 1 μM is 20 µL/min/1e6 cells or above; F means it is below 20 µL/min/1e6 cells.

Worked examples follow.
{"columns": ["compound", "group label"],
 "data": [
  ["OCC(F)(F)C(F)(F)C(F)(F)C(F)(F)C(F)(F)C(F)(F)CO [1H,1H,8H,8H-Perfluorooctane-1,8-diol]", "T"],
  ["NC(=O)C(F)(F)C(F)(F)C(F)(F)C(F)(F)F [Nonafluoropentanamide]", "T"],
  ["Cc1ccc(S(=O)(=O)OCC(F)(F)C(F)(F)C(F)(F)C(F)(F)C(F)(F)C(F)F)cc1", "T"],
  ["OCC(F)(F)C(F)(F)C(F)(F)C(F)(F)C(F)(F)C(F)(F)C(F)(F)C(F)(F)CO [1H,1H,10H,10H-Perfluorodecane-1,10-diol]", "T"],
  ["OCCC(F)(F)C(F)(F)C(F)(F)C(F)(F)F [4:2 Fluorotelomer alcohol]", "T"]
]}

Now for a further compound.
Can NC(=O)C(F)(F)C(F)(F)C(F)(F)C(F)(F)C(N)=O [Octafluoroadipamide] be said to have hepatocyte CLint at 1 μM at or above 20 µL/min/1e6 cells?
F

---

assay summary: Abiotic loss in negative controls of the hepatocyte clearance assay (cell-free media, metabolically inactivated hepatocytes)
Format: in vitro ADME
study conditions: buffer; no cells control, 0 vs 240 min; read-out: No Cells BkgdCl, Half Life
half-life at 1 μM for assorted compounds
Respond numerically; units are h and should not be typed.

{"columns": ["compound", "endpoint value"],
 "data": [
  ["OCCC(F)(F)C(F)(F)C(F)(F)C(F)(F)F", 2.92],
  ["OCC(F)(F)C(F)(F)C(F)(F)C(F)(F)C(F)(F)C(F)(F)C(F)(F)C(F)(F)CO [1H,1H,10H,10H-Perfluorodecane-1,10-diol]", 3.43],
  ["NC(=O)C(F)(F)C(F)(F)C(F)(F)C(F)(F)F [Nonafluoropentanamide]", 2.59],
  ["OCC(F)(F)C(F)(F)C(F)(F)C(F)(F)C(F)(F)C(F)(F)CO", 8.21],
  ["NC(=O)C(F)(F)C(F)(F)C(F)(F)C(F)(F)C(N)=O [Octafluoroadipamide]", 9.88]
]}

Which half-life at 1 μM reading was recorded for the compound "Cc1ccc(S(=O)(=O)OCC(F)(F)C(F)(F)C(F)(F)C(F)(F)C(F)(F)C(F)F)cc1" ?
3.24
